From: ChEMBL document CHEMBL1151043

Would you mind telling me the reported Relative potency of each entry?
# System: Enterococcus
# measurement protocol: In vitro antibacterial activity against Enterococcus relative to thienamycin
# Assay type: functional
Lab note: jot down the number only; don't add units.

get_value(item= C[C@@H](O)[C@H]1C(=O)N2C(C(=O)[O-])=C(c3ccc(C[n+]4cccc5ccccc54)cc3)C[C@H]12 , readout=Relative potency) returns 24.3

get_value(item= C[C@@H](O)[C@H]1C(=O)N2C(C(=O)[O-])=C(c3ccc(C[n+]4ccc(N)cc4)cc3)C[C@H]12 , readout=Relative potency) returns 24.3

get_value(item= C[C@@H](O)[C@H]1C(=O)N2C(C(=O)O)=C(SCCNC=N)C[C@H]12.O , readout=Relative potency) returns 1.5

get_value(item= C[C@@H](O)[C@H]1C(=O)N2C(C(=O)[O-])=C(c3ccc(C[n+]4cc(N)cc5ccccc54)cc3)C[C@H]12 , readout=Relative potency) returns 12.1

get_value(item= C[C@@H](O)[C@H]1C(=O)N2C(C(=O)O)=C(c3ccc(CN4CCOCC4)cc3)C[C@H]12 , readout=Relative potency) returns 8.6

get_value(item= C[C@@H](O)[C@H]1C(=O)N2C(C(=O)[O-])=C(c3ccc(C[n+]4ccc(CS(=O)(=O)[O-])cc4)cc3)C[C@H]12.[K+] , readout=Relative potency) returns 3.5

get_value(item= CSc1ccc[n+](Cc2ccc(C3=C(C(=O)[O-])N4C(=O)[C@H]([C@@H](C)O)[C@H]4C3)cc2)c1 , readout=Relative potency) returns 10.6

get_value(item= C[C@@H](O)[C@H]1C(=O)N2C(C(=O)[O-])=C(c3ccc(C[n+]4ccc(CCS(=O)(=O)[O-])cc4)cc3)C[C@H]12.[K+] , readout=Relative potency) returns 4.3

get_value(item= Cc1cc[n+](Cc2ccc(C3=C(C(=O)[O-])N4C(=O)[C@H]([C@@H](C)O)[C@H]4C3)cc2)cc1 , readout=Relative potency) returns 14.9

get_value(item= C[C@@H](O)[C@H]1C(=O)N2C(C(=O)[O-])=C(c3ccc(C[n+]4cccc(C(=O)[O-])c4)cc3)C[C@H]12.[K+] , readout=Relative potency) returns 5.3

get_value(item= C[C@@H](O)[C@H]1C(=O)N2C(C(=O)[O-])=C(c3ccc(C[n+]4cccc(C(F)(F)F)c4)cc3)C[C@H]12 , readout=Relative potency) returns 8

get_value(item= C[C@@H](O)[C@H]1C(=O)N2C(C(=O)O)=C(c3ccc(CN4CCSCC4)cc3)C[C@H]12 , readout=Relative potency) returns 9.2

get_value(item= C[C@@H](O)[C@H]1C(=O)N2C(C(=O)[O-])=C(c3ccc(C[n+]4cccc(C(=O)N(C)C)c4)cc3)C[C@H]12 , readout=Relative potency) returns 5.7

get_value(item= C[C@@H](O)[C@H]1C(=O)N2C(C(=O)[O-])=C(c3ccc(C[n+]4ccc(N5CCOCC5)cc4)cc3)C[C@H]12 , readout=Relative potency) returns 4.6

get_value(item= C[C@@H](O)[C@H]1C(=O)N2C(C(=O)[O-])=C(c3ccc(C[n+]4cccc(C#N)c4)cc3)C[C@H]12 , readout=Relative potency) returns 10.6

get_value(item= C[C@@H](O)[C@H]1C(=O)N2C(C(=O)[O-])=C(c3ccc(C[n+]4cccc(N)c4)cc3)C[C@H]12 , readout=Relative potency) returns 17.1

---

# Tested on: Escherichia coli
# measurement protocol: In vitro antibacterial activity against Escherichia coli relative to thienamycin
# Assay type: functional
endpoint name: Relative potency
Lab note: jot down the number only; don't add units.

get_value(item= C[C@@H](O)[C@H]1C(=O)N2C(C(=O)[O-])=C(c3ccc(C[n+]4cc(N)cc5ccccc54)cc3)C[C@H]12 , readout=Relative potency) returns 3.7

get_value(item= C[C@@H](O)[C@H]1C(=O)N2C(C(=O)O)=C(c3ccc(CN4CCN(C)CC4)cc3)C[C@H]12 , readout=Relative potency) returns 3

get_value(item= CO[C@@]1(NC(=O)Cc2cccs2)C(=O)N2C(C(=O)O)=C(COC(N)=O)CS[C@@H]21 , readout=Relative potency) returns 0.1

get_value(item= C[C@@H](O)[C@H]1C(=O)N2C(C(=O)[O-])=C(c3ccc(C[n+]4ccc(N)cc4)cc3)C[C@H]12 , readout=Relative potency) returns 7

---

# Tested on: Proteus
# measurement protocol: In vitro antibacterial activity against Proteus relative to thienamycin
# Format: functional, Proteus sp.
Tag: met if measured Relative potency is not below 8, not met if it is.

Hi, just wondering whether C[C@@H](O)[C@H]1C(=O)N2C(C(=O)[O-])=C(c3ccc(C[n+]4ccc5ccccc5c4)cc3)C[C@H]12 shows Relative potency of 8 or higher.
met

Hi, just wondering whether C[C@@H](O)[C@H]1C(=O)N2C(C(=O)[O-])=C(c3ccc(C[n+]4ccc(CN)cc4)cc3)C[C@H]12 shows Relative potency of 8 or higher.
not met

Hi, just wondering whether C[C@@H](O)[C@H]1C(=O)N2C(C(=O)[O-])=C(c3ccc(C[n+]4cccc(N)c4)cc3)C[C@H]12 shows Relative potency of 8 or higher.
met

Hi, just wondering whether C[C@@H](O)[C@H]1C(=O)N2C(C(=O)O)=C(SCCNC=N)C[C@H]12.O shows Relative potency of 8 or higher.
not met

Hi, just wondering whether C[C@@H](O)[C@H]1C(=O)N2C(C(=O)[O-])=C(c3ccc(C[n+]4cccc5ccccc54)cc3)C[C@H]12 shows Relative potency of 8 or higher.
met

Hi, just wondering whether C[C@@H](O)[C@H]1C(=O)N2C(C(=O)[O-])=C(c3ccc(C[n+]4ccc(N5CCOCC5)cc4)cc3)C[C@H]12 shows Relative potency of 8 or higher.
not met

Hi, just wondering whether C[C@@H](O)[C@H]1C(=O)N2C(C(=O)[O-])=C(c3ccc(C[n+]4cccc(C(=O)N(C)C)c4)cc3)C[C@H]12 shows Relative potency of 8 or higher.
not met

Hi, just wondering whether C[C@@H](O)[C@H]1C(=O)N2C(C(=O)[O-])=C(c3ccc(C[n+]4ccc5ccccc5c4N)cc3)C[C@H]12 shows Relative potency of 8 or higher.
not met

Hi, just wondering whether Cc1cc[n+](Cc2ccc(C3=C(C(=O)[O-])N4C(=O)[C@H]([C@@H](C)O)[C@H]4C3)cc2)cc1 shows Relative potency of 8 or higher.
met

Hi, just wondering whether C[C@@H](O)[C@H]1C(=O)N2C(C(=O)[O-])=C(c3ccc(C[n+]4ccc(CS(=O)(=O)[O-])cc4)cc3)C[C@H]12.[K+] shows Relative potency of 8 or higher.
met

Hi, just wondering whether C[C@@H](O)[C@H]1C(=O)N2C(C(=O)[O-])=C(c3ccc(C[n+]4cccc(CSCCC#N)c4)cc3)C[C@H]12 shows Relative potency of 8 or higher.
not met

Hi, just wondering whether CO[C@@]1(NC(=O)Cc2cccs2)C(=O)N2C(C(=O)O)=C(COC(N)=O)CS[C@@H]21 shows Relative potency of 8 or higher.
not met

Hi, just wondering whether CSc1ccc[n+](Cc2ccc(C3=C(C(=O)[O-])N4C(=O)[C@H]([C@@H](C)O)[C@H]4C3)cc2)c1 shows Relative potency of 8 or higher.
met

Hi, just wondering whether C[C@@H](O)[C@H]1C(=O)N2C(C(=O)[O-])=C(c3ccc(C[n+]4ccc(CCS(=O)(=O)[O-])cc4)cc3)C[C@H]12.[K+] shows Relative potency of 8 or higher.
met

Hi, just wondering whether C[C@@H](O)[C@H]1C(=O)N2C(C(=O)[O-])=C(c3ccc(C[N+]4(C)CCCC4)cc3)C[C@H]12 shows Relative potency of 8 or higher.
met

Hi, just wondering whether C[C@@H](O)[C@H]1C(=O)N2C(C(=O)O)=C(c3ccc(CN4CCSCC4)cc3)C[C@H]12 shows Relative potency of 8 or higher.
not met

Hi, just wondering whether C[C@@H](O)[C@H]1C(=O)N2C(C(=O)[O-])=C(c3ccc(C[n+]4cccc(C#N)c4)cc3)C[C@H]12 shows Relative potency of 8 or higher.
not met

Hi, just wondering whether C[C@@H](O)[C@H]1C(=O)N2C(C(=O)O)=C(c3ccc(CN4CCN(C)CC4)cc3)C[C@H]12 shows Relative potency of 8 or higher.
met

Hi, just wondering whether C[C@@H](O)[C@H]1C(=O)N2C(C(=O)[O-])=C(c3ccc(C[N+]4(C)CCOCC4)cc3)C[C@H]12 shows Relative potency of 8 or higher.
not met

Hi, just wondering whether C[C@@H](O)[C@H]1C(=O)N2C(C(=O)[O-])=C(c3ccc(C[n+]4ccc(N5CCCCC5)cc4)cc3)C[C@H]12 shows Relative potency of 8 or higher.
not met

Hi, just wondering whether C[C@@H](O)[C@H]1C(=O)N2C(C(=O)[O-])=C(c3ccc(C[n+]4ccc(N5CCSCC5)cc4)cc3)C[C@H]12 shows Relative potency of 8 or higher.
not met

Hi, just wondering whether C[C@@H](O)[C@H]1C(=O)N2C(C(=O)[O-])=C(c3ccc(C[n+]4ccc(N5CCCC5)cc4)cc3)C[C@H]12 shows Relative potency of 8 or higher.
not met

Hi, just wondering whether C[C@@H](O)[C@H]1C(=O)N2C(C(=O)O)=C(c3ccc(CN4CCCCC4)cc3)C[C@H]12 shows Relative potency of 8 or higher.
met

Hi, just wondering whether C[C@@H](O)[C@H]1C(=O)N2C(C(=O)[O-])=C(c3ccc(C[n+]4ccc(N)cc4)cc3)C[C@H]12 shows Relative potency of 8 or higher.
met

Hi, just wondering whether C[C@@H](O)[C@H]1C(=O)N2C(C(=O)[O-])=C(c3ccc(C[N+]4(C)CCCCC4)cc3)C[C@H]12 shows Relative potency of 8 or higher.
met

Hi, just wondering whether C[C@@H](O)[C@H]1C(=O)N2C(C(=O)[O-])=C(c3ccc(C[n+]4cccc(C(=O)[O-])c4)cc3)C[C@H]12.[K+] shows Relative potency of 8 or higher.
met

Hi, just wondering whether C[C@@H](O)[C@H]1C(=O)N2C(C(=O)[O-])=C(c3ccc(C[n+]4cc(N)cc5ccccc54)cc3)C[C@H]12 shows Relative potency of 8 or higher.
met
